Where do the numbers come from? From a melting point compilation (Tetko et al.; mined from patent text by program, amines drawn as free bases though some values may be those of a salt).

Below is a list of entries, each paired with its recorded melting point value.

CC1=CC(C)(C)N2C(=O)C(=O)c3cc(C)cc1c32 | 157 to 161 °C

Look up melting point: Cn1nc(N)c2cc3ccc(O)cc3nc21
288 to 290 °C

Likewise for COC(=O)c1nc2cc(OC)ccc2c(O)c1C(=O)OC ?
202 to 204 °C

---

Recorded melting point by entry

Worked examples follow.
C=CCNC(=O)N1CC(Oc2cccc(Br)c2)C1 | 90 to 92 °C
CC1=NCN(c2csc(Br)c2)O1 | 72 to 73 °C
CCCC=Cc1c(C)nc(C(C)C)c(CO)c1-c1ccc(F)cc1 | 106 to 108 °C
O=C(O)COc1cc2c(c(Cl)c1Cl)C(=O)CCC2 | 250 to 252 °C
Clc1ccc(-c2ccc3nncn3n2)cc1 | 216 to 218 °C
COC(=O)c1cn(-c2ccnc3ccccc23)c2cc(F)ccc12 | 186 °C
CC(C)(C)OC(=O)NCCCCC(=O)N1CCC(c2[nH]nc3c2C(=O)c2c(NC(=O)NN4CCOCC4)cccc2-3)CC1 | 98 to 99 °C
Cc1cc(=O)c(OCc2ccccc2)c(C(=O)O)o1 | 173 to 175 °C

Can you look up the measured melting point of N#Cc1ccc(NS(=O)(=O)c2ccc([N+](=O)[O-])cc2[N+](=O)[O-])cc1 for me?
186 to 187 °C
